This collection of values is drawn from paper PMC12040169.

Recorded viability at 28.5 h, 10 µM, one value per entry.
- measurement notes: in vitro
- conditions: human, hela cells, % viability

molecule	viability at 28.5 h, 10 µM, %
CC(=O)NCc1ccc(-c2ccc(C(=O)NCc3ccc4[nH]c(C)c(C)c4c3)c(C)n2)cc1	72.1
CCC(CC)C(=O)Nc1ccc([C@@H](O)[C@H]2COCC(=O)N2CC)cc1	107
O=C1CSC2(CCCCC2)N1Nc1ccccc1	101
CN(C)C1c2cccc3cccc(c23)C1NS(C)(=O)=O (stereo not shown)	110
Cc1nc(Nc2c(Cl)cc(S(N)(=O)=O)cc2Cl)sc1C(=O)Nc1ccccc1	106
O=C(Nc1ccccc1)N(Cc1nc(-c2ccccc2)no1)C1CCCCC1	93.2
COCCNc1nc2c(c(N3CCCC(C#N)C3)n1)CCNCC2 (stereo not shown)	87.2
c1ccc(SCCCSc2ccccn2)cc1	87
O=C(Cn1cccn1)NC(Cc1ccsc1)c1cccnc1 (stereo not shown)	97
COc1cc2c(=O)n(C)c3nncn3c2cc1OC	98.1

----------
- measurement notes: in vitro
- conditions: human, hela cells, % viability
Recorded viability at 28.5 h, 10 µM, one value per entry.
measurement type: viability at 28.5 h, 10 µM (%)

compound	data value
Clc1ccc(COc2nccnc2OC2CCN(Cc3ccc4c(c3)OCO4)CC2)cc1Cl [CBK083109T]	86.6
O=C(Cc1ccc(Cl)c(Cl)c1)N1CCC2(CCN(C(=O)Cc3c[nH]c4ccccc34)C2)C1 (stereo not drawn) [CBK131426]	106
CN1CCN(C(=O)Cn2cc(C(=O)NC3CCCCC3)ccc2=O)C(c2ccccc2)C1 (stereo not drawn) [CBK286102]	87.3
COc1ccc(-c2cc(C[C@H]3CNCC[C@H]3CC(=O)N3CCN(C)CC3)no2)cc1 [CBK289152]	83.8
Sc1nnnn1-c1ccccc1 [CBK022881G]	99.9
CCc1ocnc1C(=O)NC1CCCN(Cc2ccccc2F)C1 (stereo not drawn) [CBK306924]	104
COc1ccc(NC(=O)Nc2ccncc2)c(OC)c1 [CBK266973]	95.5
CC(C)c1ccc(C(=O)N2CCC(n3cnc4cccnc43)CC2)cc1 [CBK282370]	82.3
Cc1ccc(C(=O)N/C(=C\c2ccc3c(c2)OCO3)C(=O)NCC(=O)O)cc1 [CBK265669]	109

----------
- measurement notes: in vitro
- conditions: human, hela cells, % viability

molecule	viability at 28.5 h, 10 µM (%)
CN(C)c1ccc([N+](=O)[O-])cc1/C=N/NC(=O)CCc1ccccc1O	86.1
CCN(Cc1ccccc1)Cc1c(O)ccc2c(=O)c(-c3ccccc3OC)c(C(F)(F)F)oc12	90
CS(=O)(=O)N1CC2(CCN(CC3COc4ccccc4O3)CC2)c2ccccc21 (stereo not shown) [CBK115461T]	101
CCN1CCOC(CNc2nc(-c3ccncc3)nc3c2CCC3)C1 (stereo not shown)	88.4
O=C(CC1SC(=O)NC1=O)Nc1ccccc1O (stereo not shown)	98.5
COCC(=O)Nc1nc(OC)cnc1/C=C\c1ccccc1	113
CC(C)(C)OC(=O)NC1CCC(NCc2ccccc2Br)CC1 (stereo not shown)	91.5
O=C1NCC2(C/C=C/CCOc3ccccc31)CCN(C(=O)CCc1ccccc1)CC2	71.2
Cc1cc(N2C(=O)CC(N3CCN(c4ccc(C(=O)c5cccs5)cc4)CC3)C2=O)no1 (stereo not shown)	84.4
Cc1cccnc1C(NC(=O)C1CCN(C/C=C/c2ccco2)CC1)c1ccc(Cl)cc1 (stereo not shown)	90
O=C(Nc1ccc(N2CCNCC2)nc1)C1CCC1 [CBK004743T]	86.2
Cc1csc(NC(=O)c2cccc(S(=O)(=O)NCC3CCCO3)c2)n1 (stereo not shown)	96.7
CCOc1ccccc1NC(=O)NCc1cccnc1	107
CCOC(=O)C1=C(c2ccccc2)Nc2ncnn2C1c1cccc(OC)c1OC (stereo not shown)	106
CCOC(=O)Nc1ccc2c(c1)N(C(=O)CN1CCN(C)CC1)c1ccccc1CC2 [CBK278194C]	88.7
CC(C)Oc1ncc(C(=O)N(CCC#N)Cc2ccco2)cc1Cl	91.6
Cc1ccc(S(=O)(=O)Nc2ccc(C3(c4ccc(NS(=O)(=O)c5ccc(C)cc5)cc4)c4ccccc4C(=O)c4ccccc43)cc2)cc1	111
COc1ccc(C(=O)N2CCC3(CC2)NC(=O)c2cc(C)ccc2O3)cc1C	89
Cc1cc(C[C@@H]2COC[C@H]2NCCc2ccccc2)on1	95.5
